Data provenance is patent US7943356B2.

# Relative activity per record follows
# System: ADH T
# Test summary: Relative activities of purified ADH T in the reduction of different substrates
# Type: biochemical, Thermoanaerobacter species
# Test conditions: substrate 10 mM; activity with acetone set at 100%; […]
Quick note: give the figure in %, leave out the unit.

Response field Relative activity (ADH T) for item CC(=O)CCO [4-hydroxy-2-butanone] : 13

Simply: CC(C)=O , ADH T, Relative activity = 100

Form field Relative activity for item CCCCC(C)=O on ADH T: 30

# Relative activity measured on ADH T for item C#CC(C)=O = 76

Reading of Relative activity for CCC(C)=O with ADH T: 72

Observed Relative activity on ADH T, entry O=C(CCl)c1ccccc1 [Phenacyl chloride] , equals 25

Response field Relative activity (ADH T) for item CC=O : 101

Measured Relative activity for this entry CC(=O)c1ccc(Cl)cc1 on ADH T: 17

Observed Relative activity, ADH T, CC(=O)CCCl : 66

Item CCOC(=O)CC(=O)CCl [Ethyl 4-chloroacetoacetate] ; assay system ADH T; Relative activity reported as 45
